Provenance of the data: patent US10919896B2

target: Cdc7/Dbf4 (Homo sapiens, UniProt O00311); test: Cdc7 Biochemical Assay Method 3: Cdc7/Dbf4 Enzyme TR-FRET Assay measuring pS40MCM2; conditions: 1 μM ATP, read-out: Biochemical Method 3 (pIC50) (converted)
Sequence (O00311 whole entry): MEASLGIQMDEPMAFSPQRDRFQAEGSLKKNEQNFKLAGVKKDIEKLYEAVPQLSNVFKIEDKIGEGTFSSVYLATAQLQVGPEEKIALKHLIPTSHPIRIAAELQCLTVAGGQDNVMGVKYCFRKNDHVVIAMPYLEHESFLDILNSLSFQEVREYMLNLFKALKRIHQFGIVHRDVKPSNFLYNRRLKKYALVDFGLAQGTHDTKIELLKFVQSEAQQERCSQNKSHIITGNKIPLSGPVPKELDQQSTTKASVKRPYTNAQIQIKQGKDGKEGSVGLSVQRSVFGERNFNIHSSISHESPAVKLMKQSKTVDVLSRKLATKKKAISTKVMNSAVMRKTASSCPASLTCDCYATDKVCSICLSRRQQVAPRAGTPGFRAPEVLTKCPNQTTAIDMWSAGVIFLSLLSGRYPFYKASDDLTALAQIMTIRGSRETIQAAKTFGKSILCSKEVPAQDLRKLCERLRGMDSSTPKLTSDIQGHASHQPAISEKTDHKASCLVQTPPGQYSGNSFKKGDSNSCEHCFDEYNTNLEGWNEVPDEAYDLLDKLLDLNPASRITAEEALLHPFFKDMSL
Sequence (Q9UBU7 whole entry partner): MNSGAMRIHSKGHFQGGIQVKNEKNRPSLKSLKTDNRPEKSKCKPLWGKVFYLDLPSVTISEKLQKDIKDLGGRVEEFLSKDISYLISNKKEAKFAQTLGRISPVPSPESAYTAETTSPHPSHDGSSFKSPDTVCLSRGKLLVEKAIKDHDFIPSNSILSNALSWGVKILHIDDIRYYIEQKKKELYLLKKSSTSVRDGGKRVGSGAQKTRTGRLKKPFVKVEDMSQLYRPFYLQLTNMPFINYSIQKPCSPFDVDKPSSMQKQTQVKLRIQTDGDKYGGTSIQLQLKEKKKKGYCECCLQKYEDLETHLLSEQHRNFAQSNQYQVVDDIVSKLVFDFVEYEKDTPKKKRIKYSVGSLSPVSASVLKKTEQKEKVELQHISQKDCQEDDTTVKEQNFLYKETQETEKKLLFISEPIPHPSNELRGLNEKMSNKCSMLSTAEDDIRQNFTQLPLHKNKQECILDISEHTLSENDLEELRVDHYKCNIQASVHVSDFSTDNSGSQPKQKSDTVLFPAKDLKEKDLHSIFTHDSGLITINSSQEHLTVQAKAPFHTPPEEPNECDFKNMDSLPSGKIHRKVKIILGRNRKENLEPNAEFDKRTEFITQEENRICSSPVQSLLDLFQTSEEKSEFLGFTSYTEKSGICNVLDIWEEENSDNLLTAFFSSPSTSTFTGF
Mark each entry condition met if its IC50 sits below 20 nM, and condition not met for all others.

INSERT INTO results (molecule, class_assignment) VALUES
  ('CN(Cc1ccccc1)c1nc(-c2ccnc(F)c2)[nH]c(=O)c1Cl', 'condition not met'),
  ('O=c1[nH]c(-c2ccnc(F)c2)nc(N2CCC3(CC2)OCCO3)c1Cl', 'condition met'),
  ('O=c1[nH]c(-c2ccnc(F)c2)nc(N2CCOC(COc3ccccc3)C2)c1Cl (stereo not shown)', 'condition met'),
  ('O=c1[nH]c(-c2ccnc(F)c2)nc(N2CCC[C@H](Nc3ccccc3)C2)c1Cl', 'condition not met'),
  ('CN(c1nc(-c2ccnc(F)c2)[nH]c(=O)c1Cl)[C@@H]1CCCNC1', 'condition met'),
  ('Nc1ccc(Oc2nc(-c3ccnc(F)c3)[nH]c(=O)c2Cl)cc1', 'condition met'),
  ('O=c1[nH]c(-c2ccnc(F)c2)nc(N2CCC(CN3CCOCC3)C2)c1Cl (stereo not shown)', 'condition not met');
